Tested on: Dermatophagoides pteronyssinus
Test: Acaricidal activity against 7 to 10 day-old Dermatophagoides pteronyssinus adult after 24 hr by microscopy
Format: functional
result.type: LD50 (mg/m2)
Give bare numbers, in mg/m2.

Solved entries:
1. O=C(OCc1ccccc1)c1ccccc1 [BENZYL BENZOATE] | 67.5
2. CC1(C)C(=O)[C@@]2(C)CCC1C2 [(+)-FENCHONE] | 43.2
3. COc1ccc(C=O)cc1 | 10.1
4. CC1(C)C(=O)[C@]2(C)CCC1C2 [(-)-FENCHONE] | 48.7

For the compound shown here, `C=CCc1ccc(OC)cc1` , give the reported LD50. 389.9
